target: T1, human CCR8 (human, UniProt P51685 1-355); assay: FACS, competition with CCL1 on CHO-K1-human CCR8 cells
T1 construct: whole, on cells; also called hCCR8
T1 sequence (P51685 whole entry): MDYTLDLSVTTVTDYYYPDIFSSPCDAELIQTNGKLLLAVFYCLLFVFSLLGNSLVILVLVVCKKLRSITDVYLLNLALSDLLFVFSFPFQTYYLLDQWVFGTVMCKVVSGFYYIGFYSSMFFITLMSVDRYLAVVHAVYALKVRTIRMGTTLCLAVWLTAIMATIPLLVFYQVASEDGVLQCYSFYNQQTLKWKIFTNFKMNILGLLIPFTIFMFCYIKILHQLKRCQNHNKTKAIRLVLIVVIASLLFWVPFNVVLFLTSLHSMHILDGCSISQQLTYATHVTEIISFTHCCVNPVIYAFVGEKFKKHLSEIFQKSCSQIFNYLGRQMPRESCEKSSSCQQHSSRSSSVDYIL
Each entry below carries its reported Max Inhibition (%).
Write it as a number; the unit % goes unstated.

Solved entries (count: 2):
# BINDER, UNIT ANNOTATION, Max Inhibition (%)
measured = [
    ("Hu149-24 (antibody, human IgG1, V domains shown, human IgG1) VH: EVQLVESGGGLVQPGGSLKLSCAASGFTFNTYAMNWVRQAPGKGLEWVGRIRSKSNFYATAYAASVKGRFTISRDDSKNTAYLQMNSLKTEDTAVYYCTRGKEYGSSYAMDYWGQGTLVTVSS VL: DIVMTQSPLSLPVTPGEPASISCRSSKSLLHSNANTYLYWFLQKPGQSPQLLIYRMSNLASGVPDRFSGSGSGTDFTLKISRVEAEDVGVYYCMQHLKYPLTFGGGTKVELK", "%", 106),
    ("Hu149-20 (antibody, human IgG1, V domains shown, human IgG1) VH: EVQLVESGGGLVQPGGSLKLSCAASGFTFNTYAMNWVRQASGKGLEWVGRIRSKSNFYATAYAASVKGRFTISRDDSKNTAYLQMNSLKTEDTAVYYCTRGKEYGSSYAMDYWGQGTLVTVSS VL: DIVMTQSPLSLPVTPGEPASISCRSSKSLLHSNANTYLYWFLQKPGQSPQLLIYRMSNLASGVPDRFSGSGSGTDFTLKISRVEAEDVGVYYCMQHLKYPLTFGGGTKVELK", "%", 100),
]

Quick one: Max Inhibition (%) for Hu149-18 (antibody, human IgG1, V domains shown, human IgG1) VH: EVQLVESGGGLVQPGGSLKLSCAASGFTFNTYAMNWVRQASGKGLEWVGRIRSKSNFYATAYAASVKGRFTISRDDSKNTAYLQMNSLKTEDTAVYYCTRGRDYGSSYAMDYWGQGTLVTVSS VL: DIVMTQSPLSLPVTPGEPASISCRSSKSLLHSNANTYLYWFLQKPGQSPQLLIYRMSNLASGVPDRFSGSGSGTDFTLKISRVEAEDVGVYYCMQHLRYPLTFGGGTKVELK ?
101
